molecular target: Recombinant SIK2 (Homo sapiens (Human)); test: biochemical; conditions: recombinant SIK2 2.5 nM, 1 μM ATP; read-out: SIK2 IC50
Sequence (Q9H0K1 whole entry): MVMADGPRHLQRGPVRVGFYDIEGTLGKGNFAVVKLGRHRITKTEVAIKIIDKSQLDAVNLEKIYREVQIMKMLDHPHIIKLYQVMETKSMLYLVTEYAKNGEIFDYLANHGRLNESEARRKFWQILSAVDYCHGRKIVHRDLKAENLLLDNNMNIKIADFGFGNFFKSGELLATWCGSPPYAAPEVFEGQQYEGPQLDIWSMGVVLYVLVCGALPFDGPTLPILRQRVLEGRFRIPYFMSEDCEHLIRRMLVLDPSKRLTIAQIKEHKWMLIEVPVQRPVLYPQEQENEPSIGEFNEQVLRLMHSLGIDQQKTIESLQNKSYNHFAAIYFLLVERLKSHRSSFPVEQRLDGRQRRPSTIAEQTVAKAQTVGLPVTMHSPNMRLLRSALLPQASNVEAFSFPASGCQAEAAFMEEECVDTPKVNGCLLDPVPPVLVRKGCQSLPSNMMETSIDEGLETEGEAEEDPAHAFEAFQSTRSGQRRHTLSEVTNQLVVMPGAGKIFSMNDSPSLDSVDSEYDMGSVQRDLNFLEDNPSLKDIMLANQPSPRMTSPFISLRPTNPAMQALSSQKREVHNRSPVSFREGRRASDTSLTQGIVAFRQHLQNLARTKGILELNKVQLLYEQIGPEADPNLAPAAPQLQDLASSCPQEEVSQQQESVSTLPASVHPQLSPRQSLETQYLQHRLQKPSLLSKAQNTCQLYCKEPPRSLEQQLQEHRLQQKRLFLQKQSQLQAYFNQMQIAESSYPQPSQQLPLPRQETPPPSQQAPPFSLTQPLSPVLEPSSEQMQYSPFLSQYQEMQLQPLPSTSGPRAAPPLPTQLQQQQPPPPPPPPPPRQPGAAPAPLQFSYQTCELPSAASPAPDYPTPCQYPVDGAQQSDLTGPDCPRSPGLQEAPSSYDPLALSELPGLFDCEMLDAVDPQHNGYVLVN
For each entry below, report its IC50 value.
Please give a number only; it is taken to be in nM.

Entry COc1cc(-c2cnc3cc(C(=O)NCc4ccc(C)nc4)ccn23)cc(OC)c1C(=O)NCC(F)(F)F [Example 68] : IC50 on Recombinant SIK2 (Homo sapiens (Human)) = 12.4

Entry N#Cc1ccc(-c2cnn3cc(C(=O)NCc4nc5cccnc5[nH]4)ccc23)cc1 [Example 35] : IC50 on Recombinant SIK2 (Homo sapiens (Human)) = 7.55

Entry CCc1nnc(-c2ccc(-c3cnc4cc(-c5cnn(C)c5)ccn34)cc2OC)o1 [Example 57] : IC50 on Recombinant SIK2 (Homo sapiens (Human)) = 8.76

Entry N#Cc1ccc(-c2cnc3cc(-n4cnc(C5CC5)c4)ccn23)cc1 [Example 48] : IC50 on Recombinant SIK2 (Homo sapiens (Human)) = 7.65

Entry CCn1cc(-c2ccc3c(c2)ncn3-c2ccc(C#N)cc2)cn1 [Example 43] : IC50 on Recombinant SIK2 (Homo sapiens (Human)) = 5.89
